assayed-target: MTP (Homo sapiens, UniProt P55157)
Sequence (P55157 19-894, species assumed): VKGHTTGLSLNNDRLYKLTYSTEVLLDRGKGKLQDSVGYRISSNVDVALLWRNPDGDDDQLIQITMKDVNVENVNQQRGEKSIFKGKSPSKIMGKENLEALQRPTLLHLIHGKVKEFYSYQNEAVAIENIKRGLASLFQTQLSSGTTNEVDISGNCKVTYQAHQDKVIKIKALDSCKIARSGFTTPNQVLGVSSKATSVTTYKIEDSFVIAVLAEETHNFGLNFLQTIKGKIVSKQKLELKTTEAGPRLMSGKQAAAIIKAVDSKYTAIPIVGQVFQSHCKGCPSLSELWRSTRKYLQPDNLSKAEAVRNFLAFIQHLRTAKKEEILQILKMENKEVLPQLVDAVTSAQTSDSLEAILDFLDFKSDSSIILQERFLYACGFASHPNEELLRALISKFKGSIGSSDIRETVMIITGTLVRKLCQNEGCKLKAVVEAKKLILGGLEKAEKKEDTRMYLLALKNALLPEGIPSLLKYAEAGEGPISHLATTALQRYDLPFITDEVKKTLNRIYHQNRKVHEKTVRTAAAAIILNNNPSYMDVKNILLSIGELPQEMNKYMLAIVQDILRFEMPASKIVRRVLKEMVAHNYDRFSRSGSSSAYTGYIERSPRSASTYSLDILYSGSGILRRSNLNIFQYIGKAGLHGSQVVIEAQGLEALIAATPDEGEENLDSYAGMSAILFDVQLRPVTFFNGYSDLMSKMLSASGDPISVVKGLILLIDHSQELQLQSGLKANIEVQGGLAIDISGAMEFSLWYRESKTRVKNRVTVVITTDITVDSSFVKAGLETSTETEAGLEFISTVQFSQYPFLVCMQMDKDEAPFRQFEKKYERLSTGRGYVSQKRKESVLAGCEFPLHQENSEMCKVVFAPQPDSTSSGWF
Sequence (P07237 18-508 partner, species assumed): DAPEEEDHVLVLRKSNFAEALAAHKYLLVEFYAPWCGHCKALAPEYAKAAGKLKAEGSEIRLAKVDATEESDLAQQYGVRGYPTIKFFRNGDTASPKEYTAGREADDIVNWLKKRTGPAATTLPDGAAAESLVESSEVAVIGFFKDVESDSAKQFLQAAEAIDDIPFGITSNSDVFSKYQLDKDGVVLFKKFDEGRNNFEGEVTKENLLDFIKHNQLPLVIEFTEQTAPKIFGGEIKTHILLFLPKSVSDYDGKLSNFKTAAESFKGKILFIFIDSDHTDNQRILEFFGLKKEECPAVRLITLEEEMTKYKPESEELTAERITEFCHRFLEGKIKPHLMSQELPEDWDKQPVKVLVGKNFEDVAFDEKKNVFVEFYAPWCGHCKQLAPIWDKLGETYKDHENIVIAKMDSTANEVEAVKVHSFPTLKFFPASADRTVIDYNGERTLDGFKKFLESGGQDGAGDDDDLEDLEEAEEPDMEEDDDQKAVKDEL
# reported IC50; entries follow
Numeric answer only, unit nM assumed.

Prompt line: Please state recorded IC50 (tested on MTP (Homo sapiens, UniProt P55157)) of C=CCOC(=O)[C@@]1(c2ccccc2)CC[C@H](C(=O)N2CCC(NC(=O)c3ccccc3N3CCN(C)CC3)CC2)c2ccccc21
Response line: 8.45

---
Prompt line: Item: CCNC(=O)[C@]1(c2ccccc2)CC[C@@H](CN2CCC(NC(=O)c3ccccc3-c3ccc(C(F)(F)F)cc3)CC2)c2ccccc21 Test system: MTP (Homo sapiens, UniProt P55157) Read-out: IC50 Value: ?
Response line: 3.2

Prompt line: Could you share what IC50 was measured for Cn1cccc(C(=O)NC2CCN(C(=O)[C@H]3CC[C@@](C(=O)N4C[C@H](OC(C)(C)C)C[C@H]4C(=O)OC(C)(C)C)(c4ccccc4)c4ccccc43)CC2)c1=O , tested on MTP (Homo sapiens, UniProt P55157)?
Response line: 3720

Prompt line: Provide value of IC50 for this record tested with MTP (Homo sapiens, UniProt P55157): CCOC(=O)[C@@H](CCCCNC(=O)OC(C)C)NC(=O)[C@@]1(c2ccccc2)CC[C@H](C(=O)N2CCC(NC(=O)c3cccn(C)c3=O)CC2)c2ccccc21
Response line: 243

Prompt line: Record lookup: for MTP (Homo sapiens, UniProt P55157), what IC50 belongs to COc1ccccc1C(=O)NC1CCN(C(=O)[C@H]2CC[C@@](C(=O)NCC(=O)OC(C)(C)C)(c3ccccc3)c3ccccc32)CC1 ?
Response line: 0.713

Prompt line: Test system MTP (Homo sapiens, UniProt P55157); read-out IC50; what value for CCCOC(=O)CCNC(=O)[C@@]1(c2ccccc2)CC[C@H](C(=O)N2CCC(NC(=O)c3ccccc3OC)CC2)c2ccccc21 ?
Response line: 1.5

###

assayed-target: MTP (Homo sapiens)
So basically: is IC50 under 0.07 µM? Then label 1. Not under? Then label 0.

Some solved cases for reference:
Prompt line: For CCOC(=O)NCCCC[C@H](CC(=O)[C@@]1(c2ccccc2)CC[C@H](C(=O)N2CCC(NC(=O)c3cccn(C)c3=O)CC2)c2ccccc21)C(=O)OCC , is the recorded IC50 below the cut-off of 0.07 µM?
Response line: label 0

Prompt line: Here's an entry: COC(=O)[C@]1(c2ccccc2)CC[C@@H](C(=O)N2CCC(NC(=O)c3cc(O)ccc3OC)CC2)c2ccccc21 . Is its IC50 below 0.07 µM?
Response line: label 0

Prompt line: Hi there! Is IC50 for COC(=O)[C@@H](CCCCNC(=O)OC(C)(C)C)NC(=O)[C@@]1(c2ccccc2)CC[C@H](C(=O)N2CCC(NC(=O)c3cccn(C)c3=O)CC2)c2ccccc21 below 0.07 µM, do you know?
Response line: label 0

Prompt line: Dear reviewer, please state whether CCOC(=O)NCCCC[C@H](NC(=O)[C@@]1(c2ccccc2)CC[C@H](C(=O)N2CCC(NC(=O)c3ccccc3OC)CC2)c2ccccc21)C(=O)OCC has IC50 strictly beneath 0.07 µM.
Response line: label 1

Kindly review the next compound as well.
Prompt line: For this compound, is IC50 lower than 0.07 µM? C=CCOC(=O)[C@]1(c2ccccc2)CC[C@H](C(=O)N2CCC(NC(=O)c3ccccc3)CC2)c2ccccc21
Response line: label 0

###

assayed-target: MTP (Homo sapiens)
IC50 strictly under 60 nM means met; at 60 nM or over means not met.

Consider the worked cases shown below.
Prompt line: Input COc1ccccc1C(=O)NC1CCN(C(=O)[C@H]2CC[C@@](C(=O)N[C@@H](Cc3ccccc3)C(=O)O)(c3ccccc3)c3ccccc32)CC1 [Co. No. 125] ; condition: IC50 strictly below 60 nM. Does it hold?
Response line: not met

Prompt line: Find out if reported IC50 for CCOC(=O)C(Cc1ccc(O)cc1)NC(=O)[C@@]1(c2ccccc2)CC[C@H](C(=O)N2CCC(NC(=O)c3ccccc3OC)CC2)c2ccccc21 (stereo partly drawn) [Co. No. 85] is less than 60 nM
Response line: not met

Others:
Prompt line: Lab note: confirm whether the reported IC50 for this molecule is below 60 nM, equality not counting. molecule: COC(=O)[C@]1(c2ccccc2)CC[C@@H](C(=O)N2CCC(NC(=O)c3ccccc3OC)CC2)c2ccccc21 [Co. No. 60]
Response line: met

Prompt line: For CC(C)OC(=O)CCCCNC(=O)[C@@]1(c2ccccc2)CC[C@H](C(=O)N2CCC(NC(=O)c3cccn(C)c3=O)CC2)c2ccccc21 [Co. No. 227] , is the recorded IC50 below the cut-off of 60 nM?
Response line: not met

###

# IC50 per entry for MTP (Homo sapiens, UniProt P55157)

Some solved cases for reference:
Prompt line: Name the reported IC50 value associated with the compound CCOC(=O)[C@H](CCCCNC(=O)OC(C)(C)C)NC(=O)[C@@]1(c2ccccc2)CC[C@H](C(=O)N2CCC(NC(=O)c3ccccc3OC)CC2)c2ccccc21 [Co. No. 210]
Response line: 2.95 nM

Prompt line: Returns the measured IC50 for the input compound. Input: COc1ccccc1C(=O)NC1CCN(C(=O)[C@H]2CC[C@@](C(=O)NCCC(=O)O)(c3ccccc3)c3ccccc32)CC1 [Co. No. 90]
Response line: 2130 nM

Prompt line: Which measured IC50 value corresponds to C[C@H](NC(=O)[C@@]1(c2ccccc2)CC[C@H](C(=O)N2CCC(NC(=O)c3cccn(C)c3=O)CC2)c2ccccc21)C(=O)O [Co. No. 183] ?
Response line: > 10000 nM

Prompt line: Item CCOC(=O)NCCCC[C@H](NC(=O)[C@@]1(c2ccccc2)CC[C@H](C(=O)N2CCC(NC(=O)c3ccccc3OC)CC2)c2ccccc21)C(=O)OC(C)C [Co. No. 212] has what recorded IC50?
Response line: 4.34 nM

Prompt line: # query: IC50 of entry CCOC(=O)CNC(=O)[C@@]1(c2ccccc2)CC[C@H](C(=O)N2CCC(NC(=O)c3cccn(C)c3=O)CC2)c2ccccc21 [Co. No. 133]
Response line: 796 nM

Further cases:
Prompt line: # IC50 lookup, item COc1ccccc1C(=O)NC1CCN(C(=O)[C@H]2CC[C@@](C(=O)N(C)CC(=O)OC(C)(C)C)(c3ccccc3)c3ccccc32)CC1 [Co. No. 87]
Response line: 11.7 nM

Prompt line: Which IC50 is listed for CCOC(=O)[C@H](CC(C)C)NC(=O)[C@@]1(c2ccccc2)CC[C@H](C(=O)N2CCC(NC(=O)c3cccn(C)c3=O)CC2)c2ccccc21 [Co. No. 141] ?
Response line: 1860 nM

###

assayed-target: MTP (Homo sapiens)
Reported IC50 values follow for various compounds
// units = nM; emit number, no label

Prompt line: Any idea what IC50 was measured for COc1ccccc1C(=O)NC1CCN(C(=O)[C@H]2CC[C@@](C(=O)NCCCCCC(=O)OC(C)(C)C)(c3ccccc3)c3ccccc32)CC1 ?
Response line: 36.2

Prompt line: What value of IC50 has been reported for the following compound? CCOC(=O)NCCCC[C@H](NC(=O)[C@@]1(c2ccccc2)CC[C@H](C(=O)N2CCC(NC(=O)c3cccn(C)c3=O)CC2)c2ccccc21)C(=O)OC(C)C
Response line: 117

Prompt line: Which value of IC50 has been reported for COc1ncccc1C(=O)NC1CCN(C(=O)[C@H]2CC[C@@](C(=O)NCCC(=O)OC(C)C)(c3ccccc3)c3ccccc32)CC1 in the records?
Response line: 0.82

Next up:
Prompt line: Please give the measured IC50 for this compound: C=CCOC(=O)[C@]1(c2ccccc2)CC[C@@H](C(=O)N2CCC(NC(=O)c3ccccc3OC)CC2)c2ccccc21
Response line: 2.82

###

pIC50: −log10 of the molar value.
Lab note: pIC50 readings collected with UniProt:P55157 for the following compounds.

// solved cases for pIC50 follow
Prompt line: What measured pIC50 goes with Cn1cccc(C(=O)NC2CCN(C(=O)[C@H]3CC[C@@](C(=O)N[C@@H](CC(N)=O)C(=O)O)(c4ccccc4)c4ccccc43)CC2)c1=O ?
Response line: < 5.00

Prompt line: Given the compound Cn1cccc(C(=O)NC2CCN(C(=O)[C@H]3CC[C@@](C(=O)N[C@H](Cc4ccccc4)C(=O)O)(c4ccccc4)c4ccccc43)CC2)c1=O , what is its reported pIC50?
Response line: < 5.00

New cases:
Prompt line: Param item = CCOC(=O)[C@H](CCCCNC(=O)OC(C)(C)C)NC(=O)[C@@]1(c2ccccc2)CC[C@H](C(=O)N2CCC(NC(=O)c3cccn(C)c3=O)CC2)c2ccccc21 ; retrieve measured pIC50.
Response line: < 7.00

###

Parameter IC50, tested on UniProt P55157, listed per item.

Check out these entries, answers already filled in.
Prompt line: Name the recorded IC50 for CC(C)[C@H](NC(=O)[C@@]1(c2ccccc2)CC[C@H](C(=O)N2CCC(NC(=O)c3cccn(C)c3=O)CC2)c2ccccc21)C(=O)O .
Response line: > 10000 nM

Prompt line: Which IC50 value is on record for COc1ccccc1C(=O)NC1CCN(C(=O)[C@H]2CC[C@@](C(N)=O)(c3ccccc3)c3ccccc32)CC1 (single isomer, unassigned) ?
Response line: > 1000 nM

Now for a further compound.
Prompt line: Name the recorded IC50 for COc1ccccc1C(=O)NC1CCN(C(=O)[C@@H]2CC[C@](C(=O)NCCC(=O)OC(C)C)(c3ccccc3)c3ccccc32)CC1 .
Response line: > 1000 nM
